These data points were gathered from PubChem BioAssay (NCI).

Below is a list of entries, each paired with its recorded GI50 value.
- Test system: DU-145 prostate
- testDetails: NCI tumour cell line growth inhibition, 48 h

- compound: "Cc1cc(Br)c(NC(=O)c2c(-c3c(Cl)cccc3Cl)noc2C)c(Br)c1"
  testSystem: "DU-145 prostate"
  GI50: "90.8 µM"
- compound: "COc1ccc(Nc2cnc3cc(N)cc(N)c3n2)cc1"
  testSystem: "DU-145 prostate"
  GI50: "30.4 µM"
- compound: "COCCN(CCOC)c1nc(-c2ccccc2)nc2ccccc12"
  testSystem: "DU-145 prostate"
  GI50: "36.9 µM"
- compound: "CC(C)[C@@H]1CC[C@]2(CO2)[C@@H]2C(=O)OCC(C(=O)O)=C[C@H]21"
  testSystem: "DU-145 prostate"
  GI50: "0.471 µM"
- compound: "CSc1nc2nc(-c3ccccc3)c(C)c-2c2n1C(C)C(=O)N2 (stereo not drawn)"
  testSystem: "DU-145 prostate"
  GI50: "51.9 µM"
- compound: "COc1ccc(/C=C2\\CCC/C(=C\\c3ccc(OC)c(OC)c3)C2=O)cc1OC"
  testSystem: "DU-145 prostate"
  GI50: "1.28 µM"

Challenge: Endpoint output: GI50 of O=C(Nc1ccc(OC(F)(F)Cl)cc1)c1cnc(N2CC[C@@H](O)C2)c(-c2ccn[nH]2)c1 . Value?
Response given: 13.2 µM

Challenge: Reported GI50 for COCCN(Cc1ccc(F)cc1)c1ccc(CO)c(Cl)c1 : what is it?
Response given: 70.4 µM

* * *

- Test system: SR leukemia
- testDetails: NCI tumour cell line growth inhibition, 48 h
quantityName: TGI (µM)
Number only, in µM; omit the unit.

Reference set (4 entries):
- compound: "O=C1c2cc3c(cc2-c2c1c1ccc(Cl)cc1c(=O)n2C[C@H](O)CO)OCO3"
  testSystem: "SR leukemia"
  TGI [µM]: 12.7
- compound: "CCSCC1CC(O)(c2ccccc2)C(c2ccccc2)C(c2ccc(F)cc2)O1 (configuration not stated)"
  testSystem: "SR leukemia"
  TGI [µM]: 5.85
- compound: "O=C(COc1ccc(/C=C2\\Oc3ccccc3C2=O)cc1)Nc1nc2ccccc2s1"
  testSystem: "SR leukemia"
  TGI [µM]: 8.57
- compound: "CC(C)[C@@H]1CC[C@]2(CO2)[C@@H]2C(=O)OCC(C(=O)O)=C[C@H]21"
  testSystem: "SR leukemia"
  TGI [µM]: 4.24

Next, consider the following compound.
Challenge: Dear colleague, I am looking for the recorded TGI of the following compound: CC(=O)Oc1ccc(C2=Cc3ccc(OC(C)=O)cc3OC2C)cc1 (configuration not stated)
Response given: 9.95

* * *

- Test system: A498 renal
- testDetails: NCI tumour cell line growth inhibition, 48 h
quantityName: GI50

Example entries and their recorded answers appear below.
- molecule: "CCC(c1ccccc1)c1noc(CCN(CC)CC)n1 (stereo unspecified)"
  testSystem: "A498 renal"
  GI50: "> 81.9 µM"
- molecule: "COc1ccccc1Oc1nccc(-c2c(-c3ccc(F)cc3)ncn2C2CCNCC2)n1"
  testSystem: "A498 renal"
  GI50: "> 25 µM"
- molecule: "COCCOC1=C(Cl)C(=O)c2ccccc2C1=O"
  testSystem: "A498 renal"
  GI50: "4.35 µM"

Challenge: Recorded GI50 for O=C(Nc1ccc(OC(F)(F)Cl)cc1)c1cnc(N2CC[C@@H](O)C2)c(-c2ccn[nH]2)c1 with A498 renal, please?
Response given: 14.8 µM

Challenge: A498 renal / GI50 / [O]=[V]([OH])([OH])[OH] : value?
Response given: > 100 µM

Challenge: Please provide the recorded GI50 for CN(C)c1ccc(-c2cc(-c3ccc(Nc4nc(Nc5ccc(Cl)cc5)nc(Nc5ccc(Cl)cc5)n4)cc3)nc(N)c2C#N)cc1 , tested on A498 renal.
Response given: 6.41 µM

Challenge: Provide value of GI50 for this record tested with A498 renal: CC(=O)Oc1c(C(=O)[O-])cc(C(C)C)cc1C(C)C.CC(=O)Oc1c(C(=O)[O-])cc(C(C)C)cc1C(C)C.CC(=O)Oc1c(C(=O)[O-])cc(C(C)C)cc1C(C)C.CC(=O)Oc1c(C(=O)[O-])cc(C(C)C)cc1C(C)C.[Cu+2].[Cu+2]
Response given: 16 µM

Challenge: Return GI50 measured with A498 renal given this molecule: CCSCC1CC(O)(c2ccccc2)C(c2ccccc2)C(c2ccc(F)cc2)O1 (stereo unspecified)
Response given: 2.15 µM

Challenge: Fill in the recorded GI50 for this molecule, with A498 renal as test system: S=C1SCN(Cc2ccccc2)CN1Cc1ccco1
Response given: 21.6 µM

Challenge: Query the reported GI50 for A498 renal; item: COc1ccccc1CNCCN1C(=O)c2ccc3c4c(ccc(c24)C1=O)C(=O)N(CCNCc1ccccc1OC)C3=O
Response given: 1.49 µM

Challenge: Hi! What's the reported GI50 for COc1ccc(-c2[nH]c3ccc(OC)cc3c2C=C(C#N)C#N)cc1 on A498 renal?
Response given: 0.075 µM

* * *

- Tested on: ACHN renal
- testDetails: NCI tumour cell line growth inhibition, 48 h; in the data active = GI50 below about 0.43 µM; inactive = the rest
Write down the outcome that applies. Available outcomes: active, inactive

Example results:
- compound: "Fc1ccc(NC(c2ccc(F)cc2)C2CCN(CCCCc3ccccc3)CC2)cc1 (centres undefined)"
  groupLabel: "inactive"
- compound: "CC(=O)Oc1ccc(C2=Cc3ccc(OC(C)=O)cc3OC2C)cc1 (centres undefined)"
  groupLabel: "inactive"
- compound: "Cc1cccc(Cn2cc(CO)c3cnccc32)c1"
  groupLabel: "inactive"
- compound: "CC(=O)Oc1c(C(=O)[O-])cc(C(C)C)cc1C(C)C.CC(=O)Oc1c(C(=O)[O-])cc(C(C)C)cc1C(C)C.CC(=O)Oc1c(C(=O)[O-])cc(C(C)C)cc1C(C)C.CC(=O)Oc1c(C(=O)[O-])cc(C(C)C)cc1C(C)C.[Cu+2].[Cu+2]"
  groupLabel: "inactive"
- compound: "Cc1cnc(C(=O)NNc2nc3sc4c(c3c(=O)[nH]2)C(C)CCC4)cn1 (centres undefined)"
  groupLabel: "inactive"
- compound: "CNCc1ccc(-c2cc(-c3nc(-c4ccc(S(=O)(=O)C(C)C)cc4)cnc3N)on2)cc1"
  groupLabel: "active"
- compound: "CCc1ccc(Nc2cc(C)c3ccc(O)cc3n2)cc1"
  groupLabel: "inactive"
- compound: "Nc1nc(=S)c2ncn(C3OC(COP(=O)(O)O)C(O)C3O)c2[nH]1 (centres undefined)"
  groupLabel: "inactive"

Kindly review the next compound as well.
Challenge: So what was the verdict on COc1ccccc1CNCCN1C(=O)c2ccc3c4c(ccc(c24)C1=O)C(=O)N(CCNCc1ccccc1OC)C3=O in this test?
Response given: active

* * *

- Tested on: 786-0 renal
- testDetails: NCI tumour cell line growth inhibition, 48 h
Catalogue of log10 of TGI values
Heads up, the numbers here are log10 of TGI in µM units.

// worked examples, log10 of TGI included
- compound: "Cc1ccc(S(=O)(=O)N(CC(O)COc2ccccc2)c2c(F)cccc2F)cc1 (stereo not given)"
  quantitativeReadout: 1.62
- compound: "CC1NOC(=O)C1N=Nc1ccc(Cl)cc1Cl (stereo not given)"
  quantitativeReadout: 1.62

Turning now to a further record.
Challenge: Recorded log10 of TGI for CC(C)(CN1CCCCC1)C(=O)/C=C/c1ccc(Br)cc1 , please?
Response given: 0.67

* * *

Overview of reported TGI across a group of compounds:
- Test system: SW-620 colon
- testDetails: NCI tumour cell line growth inhibition, 48 h

Please review the following examples before continuing.
- compound: "CCOC(=O)C1(C)CCC(C(C(=O)O)C(=O)O)CC1=O (centres undefined)"
  TGI: "> 100 µM"
- compound: "CCOC(=O)C1(C/C=C\\CBr)CCCC1=O (centres undefined)"
  TGI: "54.9 µM"
- compound: "COC(=O)[C@@]12OC[C@]34C([C@@H](O)C1O)[C@@]1(C)CC(=O)C(OC(=O)CC(C)C(F)(F)F)=C(C)C1C[C@H]3OC(=O)[C@H](O)[C@H]42 (some centres undefined)"
  TGI: "> 62.5 µM"

Proceeding to the next compound to report its TGI.
Challenge: Param readout= TGI; system= SW-620 colon; entry= Cc1cc(O)c(/C=N/C(N)=S)c(=O)o1 ; returns value.
Response given: > 100 µM

* * *

- Test system: NCI/ADR-RES ovarian
- testDetails: NCI tumour cell line growth inhibition, 48 h; in the data active = GI50 below about 0.43 µM; inactive = the rest
Your answer must be one of the following: T = active, F = inactive

Some solved entries appear below for comparison.
- compound: "Nc1nccc(-c2c(-c3ccc(F)cc3)nn3cc(C(F)(F)F)ccc23)n1"
  groupLabel: "F"
- compound: "CCCCS(=O)c1sc2nc(-c3cccs3)cc(-c3ccccc3)c2c1N (configuration not stated)"
  groupLabel: "F"

Challenge: For Cc1cnc(C(=O)NNc2nc3sc4c(c3c(=O)[nH]2)C(C)CCC4)cn1 (configuration not stated) , what call appears in the results of this test?
Response given: F

Challenge: Which outcome was entered for the compound CC(=O)Oc1ccc(C2=Cc3ccc(OC(C)=O)cc3OC2C)cc1 (configuration not stated) in this test?
Response given: F

Challenge: Short answer needed: outcome of this test for C#Cc1ccc(-n2c(/C=C/c3ccc(O)cc3)nc3ncccc3c2=O)cc1 ?
Response given: F

Challenge: Which outcome was entered for the compound O=C1c2cc3c(cc2-c2c1c1ccc(Cl)cc1c(=O)n2C[C@H](O)CO)OCO3 in this test?
Response given: T

Challenge: Could you please tell me the result logged for OCC1CC[N-]CC1.OCC1CC[N-]CC1.[Cl][Pt+2]([Cl])([Cl])[Cl] in this assay?
Response given: F
